System: B16
method_notes: In vitro compound's ability to inhibit the replication of cultured B16 melanoma cells
Type: functional
reported_conditions: Mus musculus, read-out: ID50 (the source's name)
observed_property: IC50 (µM)

- O=C(O)c1ccc(N[C@@H]2O[C@H](CO)[C@@H](O)[C@H](O)[C@@H]2O)cc1: 39
- O=C(O)c1ccc(N[C@@H]2O[C@H](CO)[C@H](O)[C@H](O)[C@H]2O)cc1: 30
- O=C(O)c1ccc(N[C@@H]2OC[C@@H](O)C(O)[C@H]2O)cc1 (stereo partly drawn): 100
- CC(=O)OCC1O[C@@H](Nc2ccc(C(=O)O)cc2)[C@@H](OC(C)=O)C(OC(C)=O)[C@@H]1OC(C)=O (stereo partly drawn): 18
- O=C(O)c1ccc(N[C@@H]2OC(CO)[C@@H](O)C(O)[C@@H]2O)cc1 (stereo partly drawn): 100
- CC(=O)OCC1O[C@@H](Nc2ccc(C(=O)OC(C)=O)cc2)[C@H](OC(C)=O)C(OC(C)=O)[C@@H]1OC(C)=O (stereo partly drawn): 25

1 = CC(=O)OC1[C@@H](OC(C)=O)C(C)O[C@@H](Nc2ccc(C(=O)O)cc2)[C@H]1OC(C)=O (stereo partly drawn)
2 = CC1O[C@@H](Nc2ccc(C(=O)O)cc2)[C@@H](O)C(O)[C@H]1O (stereo partly drawn)
3 = O=C(O)c1ccc(N[C@@H]2O[C@H](CO)[C@@H](O)[C@H](O)[C@H]2O)cc1
4 = CC(=O)OC1[C@@H](OC(C)=O)CO[C@@H](Nc2ccc(C(=O)O)cc2)[C@@H]1OC(C)=O (stereo partly drawn)
Sort entries by IC50 from minimum to maximum value. Write out the labels following the order that was asked for.
4, 1, 2, 3

P = O=C(O)c1ccc(N[C@@H]2OC[C@@H](O)C(O)[C@@H]2O)cc1 (stereo partly drawn)
Q = CC(=O)OC(=O)c1ccc(N[C@@H]2OC[C@@H](OC(C)=O)C(OC(C)=O)[C@@H]2OC(C)=O)cc1 (stereo partly drawn)
Hi, I'm comparing two records. Which one has the lower IC50, P or Q ? State your choice using its label.
Q
